- TARGET_DESC: PI3K (p110α) (Homo sapiens, UniProt P42336)
- Sequence (P42336 whole entry): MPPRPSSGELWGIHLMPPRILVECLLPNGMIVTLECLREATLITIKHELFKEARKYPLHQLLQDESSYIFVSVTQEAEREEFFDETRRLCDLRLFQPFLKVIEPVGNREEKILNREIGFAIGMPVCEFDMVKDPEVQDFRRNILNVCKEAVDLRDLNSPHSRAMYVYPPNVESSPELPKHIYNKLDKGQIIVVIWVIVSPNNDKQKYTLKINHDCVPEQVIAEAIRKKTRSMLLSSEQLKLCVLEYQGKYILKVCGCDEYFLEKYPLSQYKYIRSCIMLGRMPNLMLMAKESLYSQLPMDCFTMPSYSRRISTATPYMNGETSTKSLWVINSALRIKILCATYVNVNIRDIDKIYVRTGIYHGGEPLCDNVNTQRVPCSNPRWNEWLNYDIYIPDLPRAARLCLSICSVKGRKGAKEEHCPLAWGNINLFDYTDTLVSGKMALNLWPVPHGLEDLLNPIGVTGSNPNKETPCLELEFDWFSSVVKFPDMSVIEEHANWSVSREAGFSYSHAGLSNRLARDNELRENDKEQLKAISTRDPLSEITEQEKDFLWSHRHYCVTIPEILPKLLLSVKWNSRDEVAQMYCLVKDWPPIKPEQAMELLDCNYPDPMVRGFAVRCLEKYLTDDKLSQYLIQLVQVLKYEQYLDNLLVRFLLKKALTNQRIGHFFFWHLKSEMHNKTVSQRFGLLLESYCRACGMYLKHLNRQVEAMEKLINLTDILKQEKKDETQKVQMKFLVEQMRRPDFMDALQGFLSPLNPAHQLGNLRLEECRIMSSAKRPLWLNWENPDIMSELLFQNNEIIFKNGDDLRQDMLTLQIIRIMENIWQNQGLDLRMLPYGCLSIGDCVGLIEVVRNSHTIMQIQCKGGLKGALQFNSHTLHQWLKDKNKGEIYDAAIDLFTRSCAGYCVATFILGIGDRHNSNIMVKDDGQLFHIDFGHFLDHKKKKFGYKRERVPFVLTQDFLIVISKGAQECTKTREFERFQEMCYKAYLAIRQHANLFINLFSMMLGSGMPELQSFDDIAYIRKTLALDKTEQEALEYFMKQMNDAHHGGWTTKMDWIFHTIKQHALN
- Sequence (P27986 whole entry partner): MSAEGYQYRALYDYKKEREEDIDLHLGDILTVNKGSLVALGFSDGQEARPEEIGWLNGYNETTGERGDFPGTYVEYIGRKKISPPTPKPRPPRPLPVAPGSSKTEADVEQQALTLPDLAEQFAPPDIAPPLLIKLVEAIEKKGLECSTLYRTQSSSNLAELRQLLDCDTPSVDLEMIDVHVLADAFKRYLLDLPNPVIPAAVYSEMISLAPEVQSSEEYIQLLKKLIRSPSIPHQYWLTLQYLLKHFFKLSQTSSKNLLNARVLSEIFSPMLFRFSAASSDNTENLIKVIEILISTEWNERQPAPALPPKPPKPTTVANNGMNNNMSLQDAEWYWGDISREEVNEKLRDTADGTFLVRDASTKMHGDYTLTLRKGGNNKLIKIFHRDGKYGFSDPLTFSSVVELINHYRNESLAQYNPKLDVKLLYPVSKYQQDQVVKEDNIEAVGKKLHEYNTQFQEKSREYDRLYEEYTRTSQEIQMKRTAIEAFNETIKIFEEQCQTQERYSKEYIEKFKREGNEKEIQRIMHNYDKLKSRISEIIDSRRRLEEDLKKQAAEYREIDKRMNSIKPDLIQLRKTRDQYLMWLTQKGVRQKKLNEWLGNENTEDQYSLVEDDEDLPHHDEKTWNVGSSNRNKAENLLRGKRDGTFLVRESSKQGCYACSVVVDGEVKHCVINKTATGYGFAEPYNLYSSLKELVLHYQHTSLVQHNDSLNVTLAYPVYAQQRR
- ASSAY_OVERVIEW: In vitro enzyme activity assay, PI3K (p110α) kinase, Method II (ADP-Glo assay)
- Format: biochemical
- Set-up: purchased Millipore 14-602-K
- SETTINGS: read-out: PI3K (p110α) enzyme activity_IC50
- Description: PI3K (p110α) kinase activities of the compounds in all the examples of the present invention were tested via the following two methods, respectively. Dilution of the Compound: The compound to be tested was diluted with a 3-fold concentration gradient, and 10 concentrations (from 10000 nM to 0.5 nM) were obtained in total. […] IC50 was calculated using standard 4-parameter fit method (Model205, XL-fit, iDBS).
// IC50 lookup, one value per entry

MOLECULE: COc1ncc(-c2ccc3ncc(OCCNC(C)=O)c(=O)n3c2)cc1NS(=O)(=O)c1ccc(F)cc1Cl [Compound 22]
MEASUREMENT_NAME: IC50
OBSERVED_RESULT: ≤ 1 nM

MOLECULE: COc1ncc(-c2ccc3ncc(OCCN4CCNCC4)c(=O)n3c2)cc1NS(=O)(=O)c1ccc(F)cc1Cl [Compound 75]
MEASUREMENT_NAME: IC50
OBSERVED_RESULT: ≤ 1 nM

MOLECULE: COc1ncc(-c2ccc3ncc(OCCn4nccc4C)c(=O)n3c2)cc1NS(=O)(=O)c1ccc(F)cc1F [Compound 40]
MEASUREMENT_NAME: IC50
OBSERVED_RESULT: 1 to 50 nM

MOLECULE: COc1ncc(-c2ccc3ncc(OCC4CCN(C)CC4)c(=O)n3c2)cc1NS(=O)(=O)c1ccc(F)cc1Cl [Compound 71]
MEASUREMENT_NAME: IC50
OBSERVED_RESULT: 1 to 50 nM

MOLECULE: COc1ncc(-c2ccc3ncc(OCCN(CCO)CC(F)(F)F)c(=O)n3c2)cc1NS(=O)(=O)c1ccc(F)cc1Cl [Compound 84]
MEASUREMENT_NAME: IC50
OBSERVED_RESULT: 1 to 50 nM

MOLECULE: COc1ncc(-c2ccc3ncc(OCCN4CCOCC4)c(=O)n3c2)cc1NS(=O)(=O)c1c(F)cc(F)cc1Cl [Compound 64]
MEASUREMENT_NAME: IC50
OBSERVED_RESULT: ≤ 1 nM

MOLECULE: COc1ncc(-c2ccc3ncc(CN4CCOCC4)c(=O)n3c2)cc1NS(=O)(=O)c1sc(C)nc1C [Compound 51]
MEASUREMENT_NAME: IC50
OBSERVED_RESULT: 1 to 50 nM

MOLECULE: COc1ncc(-c2ccc3ncc(OCCNCC(F)(F)F)c(=O)n3c2)cc1NS(=O)(=O)c1ccc(F)cc1Cl [Compound 92]
MEASUREMENT_NAME: IC50
OBSERVED_RESULT: ≤ 1 nM

MOLECULE: COc1ncc(-c2ccc3ncc(OCCN4CCCC4)c(=O)n3c2)cc1NS(=O)(=O)c1ccc(F)cc1Cl [Compound 27]
MEASUREMENT_NAME: IC50
OBSERVED_RESULT: ≤ 1 nM

MOLECULE: COc1ncc(-c2ccc3ncc(OCC4CCCN4C)c(=O)n3c2)cc1NS(=O)(=O)c1sc(C)nc1C (stereo not drawn) [Compound 34]
MEASUREMENT_NAME: IC50
OBSERVED_RESULT: ≤ 1 nM

Note: attention shifts to another entry.
Look up and report measured IC50 for this entry: COc1ncc(-c2ccc3ncc(OCCn4ccc(C)n4)c(=O)n3c2)cc1NS(=O)(=O)c1ccc(F)cc1F [Compound 38] 1 to 50 nM

Where these numbers come from: patent US9856256B2
